molecular target: Human recombinant PDE2A (hPDE2A) (Homo sapiens, UniProt O00408); construct: made in house; host or cells: Sf9 insect cells (baculovirus); experiment: In vitro assay PDE2A (SPA, 3H-cGMP); format: biochemical; conditions: read-out: pIC50 PDE2 (converted)
Sequence (O00408 whole entry): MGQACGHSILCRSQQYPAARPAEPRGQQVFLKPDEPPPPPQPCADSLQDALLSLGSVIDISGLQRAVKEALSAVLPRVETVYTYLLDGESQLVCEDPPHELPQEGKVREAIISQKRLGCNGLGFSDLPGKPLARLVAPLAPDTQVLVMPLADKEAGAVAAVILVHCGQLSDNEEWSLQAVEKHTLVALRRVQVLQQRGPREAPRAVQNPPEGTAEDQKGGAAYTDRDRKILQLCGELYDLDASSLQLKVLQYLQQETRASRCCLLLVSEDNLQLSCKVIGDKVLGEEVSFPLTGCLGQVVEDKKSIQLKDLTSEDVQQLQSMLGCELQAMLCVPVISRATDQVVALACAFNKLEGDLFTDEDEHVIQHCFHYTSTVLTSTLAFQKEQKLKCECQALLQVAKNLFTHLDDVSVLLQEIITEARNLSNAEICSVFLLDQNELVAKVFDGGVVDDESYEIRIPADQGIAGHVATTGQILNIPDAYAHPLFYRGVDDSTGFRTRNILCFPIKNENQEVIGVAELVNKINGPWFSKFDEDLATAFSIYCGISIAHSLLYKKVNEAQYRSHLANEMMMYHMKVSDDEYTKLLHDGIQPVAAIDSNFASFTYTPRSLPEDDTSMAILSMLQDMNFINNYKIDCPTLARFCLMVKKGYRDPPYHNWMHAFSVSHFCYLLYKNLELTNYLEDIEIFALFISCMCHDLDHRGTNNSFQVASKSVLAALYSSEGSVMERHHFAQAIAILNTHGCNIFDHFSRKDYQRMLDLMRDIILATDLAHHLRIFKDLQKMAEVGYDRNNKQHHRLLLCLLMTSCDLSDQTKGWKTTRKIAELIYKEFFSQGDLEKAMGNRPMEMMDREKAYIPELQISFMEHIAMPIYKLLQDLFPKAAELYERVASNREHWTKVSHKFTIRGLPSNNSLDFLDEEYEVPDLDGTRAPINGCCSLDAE
Class (by IC50) -- lower band: < 0.006 µM; central band: ≥ 0.006 µM and < 0.03 µM; upper band: ≥ 0.03 µM

Use the examples below as a reference point.
>  <Compound>
Cc1nc2ccc(C(=O)C3CC3)cc2n2c(-c3ccccc3Cl)nnc12

>  <Discrete label>
lower band

$$$$
>  <Compound>
COc1ccc2nc(C)c3nnc(-c4ccccc4OC(F)(F)F)n3c2c1

>  <Discrete label>
upper band

$$$$
>  <Compound>
COCCNC(=O)c1ccc2nc(C)c3nnc(-c4ccccc4Cl)n3c2c1

>  <Discrete label>
lower band

$$$$
>  <Compound>
COCC1CN(Cc2ccc3nc(C)c4nnc(-c5ccccc5Cl)n4c3c2)CCO1 (stereo not shown)

>  <Discrete label>
central band

$$$$
>  <Compound>
Cc1nc2ccc(C(=O)NCc3ccccn3)cc2n2c(-c3cc(F)ccc3Cl)nnc12

>  <Discrete label>
lower band

$$$$
>  <Compound>
CCCCOc1ccc(Cl)c(-c2nnc3c(C)nc4ccc(N5CCN(C)CC5)cc4n23)c1

>  <Discrete label>
central band

$$$$
>  <Compound>
CCNC(=O)c1ccc2nc(C)c3nnc(-c4ccccc4OC)n3c2c1

>  <Discrete label>
central band

$$$$
>  <Compound>
Cc1nc2ccc(CN3CCOCC3)cc2n2c(-c3cncc(OCCF)c3)nnc12

>  <Discrete label>
upper band

$$$$
>  <Compound>
CCOc1ccc(Cl)c(-c2nnc3c(C)nc4ccc(CNc5cccnc5)cc4n23)c1

>  <Discrete label>
central band

$$$$
>  <Compound>
Cc1nc2ccc(Oc3ccncc3)cc2n2c(-c3ccccc3Cl)nnc12

>  <Discrete label>
lower band

$$$$

Q: Record `Cc1nc2ccc(C(=O)NCCc3ccccc3)cc2n2c(-c3ccccc3Cl)nnc12` — which class?
A: lower band

Q: Record `Cc1nc2ccc(OCCc3cccnc3)cc2n2c(-c3cc(OC(C)C)ccc3Cl)nnc12` — which class?
A: upper band

Q: Record `Cc1nc2ccc(CN[C@H]3CC[C@H](O)CC3)cc2n2c(-c3ccccc3Cl)nnc12` — which class?
A: central band

Q: Record `Cc1nc2ccc(CNc3cccnc3)cc2n2c(-c3ccccc3Cl)nnc12` — which class?
A: lower band

Q: Record `COc1ccc2nc(C)c3nnc(-c4cnccc4C)n3c2c1` — which class?
A: upper band

Q: Record `CNC(=O)c1ccc2nc(C)c3nnc(-c4ccccc4Cl)n3c2c1` — which class?
A: lower band

Q: Record `Cc1nc2ccc(CO)cc2n2c(-c3ccccc3)nnc12` — which class?
A: upper band

Q: Record `CCC(=O)Nc1ccc2nc(C)c3nnc(-c4ccccc4Cl)n3c2c1` — which class?
A: lower band

----------
test system: Apomorphine-induced agitation; assay: Reversal of Apomorphine-induced Agitation in Rats (APO); type: in vivo, rat; settings: oral route; apomorphine 1.0 mg/kg i.v.
Endpoint: PO Max effect (cumulative agitation score over 60 min)
Please reply with the number alone, leaving off any unit.

>  <Compound>
Cc1nc2ccc(C(=O)NCCCc3ccccc3)cc2n2c(-c3ccccc3)nnc12 [Compound B-77]

>  <Observed value>
21

$$$$
>  <Compound>
Cc1nc2ccc(C(=O)NCc3cccc(F)n3)cc2n2c(-c3ccccc3Cl)nnc12 [Compound B-32]

>  <Observed value>
22

$$$$
>  <Compound>
Cc1nc2cc(OCCc3ccccn3)ccc2n2c(-c3ccccc3Cl)nnc12 [Compound B-139]

>  <Observed value>
22

$$$$

Here is another compound to look at.
Q: Fill in the blank: the reported PO Max effect (cumulative agitation score over 60 min) of Cc1nc2ccc(C(=O)NCc3ccccn3)cc2n2c(-c3cc(F)ccc3Cl)nnc12 [Compound B-39] is ____.
A: 21

----------
test system: Apomorphine-induced agitation; assay: Reversal of Apomorphine-induced Agitation in Rats (APO); format: in vivo, rat; settings: subcutaneous route; apomorphine 1.0 mg/kg i.v.
Endpoint: SC Max effect (cumulative agitation score over 60 min)
Please reply with the number alone, leaving off any unit.

Recorded SC Max effect (cumulative agitation score over 60 min), per entry:
>  <Molecule>
Cc1nc2ccc(CN3CCCC(CO)C3)cc2n2c(-c3ccccc3Cl)nnc12 (stereo not shown) [Compound B-110]

>  <Observed value>
21

$$$$
>  <Molecule>
Cc1nc2ccc(CNc3cccnc3)cc2n2c(-c3ccccc3Cl)nnc12 [Compound B-50]

>  <Observed value>
22

$$$$
>  <Molecule>
CCN(CC)CCNC(=O)c1ccc2nc(C)c3nnc(-c4ccccc4Cl)n3c2c1 [Compound B-41]

>  <Observed value>
22

$$$$
>  <Molecule>
CCOc1ccc(Cl)c(-c2nnc3c(C)nc4ccc(CN(C)C)cc4n23)c1 [Compound B-142]

>  <Observed value>
22

$$$$
>  <Molecule>
CCOc1ccc(Cl)c(-c2nnc3c(C)nc4ccc(CNc5cccnc5)cc4n23)c1 [Compound B-103]

>  <Observed value>
21

$$$$

Q: Fill in the blank: the reported SC Max effect (cumulative agitation score over 60 min) of CCOCc1ccc2nc(C)c3nnc(-c4ccccc4)n3c2c1 [Compound B-12] is ____.
A: 19

Q: Fill in the blank: the reported SC Max effect (cumulative agitation score over 60 min) of COCC1CN(Cc2ccc3nc(C)c4nnc(-c5ccccc5Cl)n4c3c2)CCO1 (stereo not shown) [Compound B-75] is ____.
A: 15

Q: Fill in the blank: the reported SC Max effect (cumulative agitation score over 60 min) of COCC1CCN(Cc2ccc3nc(C)c4nnc(-c5ccccc5Cl)n4c3c2)C1 (stereo not shown) [Compound B-94] is ____.
A: 24

Q: Fill in the blank: the reported SC Max effect (cumulative agitation score over 60 min) of COc1ccc(Cl)c(-c2nnc3c(C)nc4ccc(CN5CCC(F)CC5)cc4n23)c1 [Compound B-97] is ____.
A: 19

----------
biological target: Rat recombinant PDE10A (rPDE10A2) (Rattus norvegicus, UniProt Q9QYJ6); construct: made in house; host or cells: Sf9 insect cells (baculovirus); assay: In vitro assay PDE10A (SPA, 3H-cAMP); format: biochemical; details: -log IC50 expressed in mol/L; rPDE10A2, 60 nM cAMP; read-out: PIC50 PDE10 (converted)
Sequence (Q9QYJ6 whole entry): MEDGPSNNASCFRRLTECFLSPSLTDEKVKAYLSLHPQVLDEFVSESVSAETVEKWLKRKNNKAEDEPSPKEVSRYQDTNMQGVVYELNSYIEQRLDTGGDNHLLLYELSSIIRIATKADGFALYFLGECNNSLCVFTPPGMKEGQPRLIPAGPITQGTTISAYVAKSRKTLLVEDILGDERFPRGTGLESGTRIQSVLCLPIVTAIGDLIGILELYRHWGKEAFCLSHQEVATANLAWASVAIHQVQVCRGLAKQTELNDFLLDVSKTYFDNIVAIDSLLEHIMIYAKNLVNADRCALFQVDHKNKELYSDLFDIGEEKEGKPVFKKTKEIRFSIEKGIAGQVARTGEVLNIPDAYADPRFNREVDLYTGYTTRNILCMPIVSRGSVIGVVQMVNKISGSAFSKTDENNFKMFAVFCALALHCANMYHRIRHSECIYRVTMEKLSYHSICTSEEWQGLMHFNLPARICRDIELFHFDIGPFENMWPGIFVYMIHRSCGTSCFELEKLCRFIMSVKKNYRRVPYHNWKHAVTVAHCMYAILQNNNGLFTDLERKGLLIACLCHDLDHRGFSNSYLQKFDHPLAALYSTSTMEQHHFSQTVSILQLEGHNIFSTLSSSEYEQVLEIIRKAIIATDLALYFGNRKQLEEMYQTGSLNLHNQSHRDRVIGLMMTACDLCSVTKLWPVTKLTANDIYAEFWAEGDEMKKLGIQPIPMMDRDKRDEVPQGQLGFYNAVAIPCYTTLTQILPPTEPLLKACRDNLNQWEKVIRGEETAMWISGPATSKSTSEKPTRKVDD
Could you mark each record y if its IC50 falls strictly under 0.02 µM, and n if it equals or exceeds it?

>  <Compound>
CCCCOc1ccc(Cl)c(-c2nnc3c(C)nc4ccc(CN(C)C)cc4n23)c1 [Compound B-88]

>  <Discrete label>
n

$$$$
>  <Compound>
Cc1nc2ccc(C(=O)NCc3ccccn3)cc2n2c(-c3ccccc3Cl)nnc12 [Compound B-35]

>  <Discrete label>
y

$$$$
>  <Compound>
CCNC(=O)c1ccc2nc(C)c3nnc(-c4ccccc4Cl)n3c2c1 [Compound B-10]

>  <Discrete label>
n

$$$$
>  <Compound>
COc1ccc(Cl)c(-c2nnc3c(C)nc4ccc(CN5CCOCC5)cc4n23)c1 [Compound B-84]

>  <Discrete label>
n

$$$$

Q: Threshold test, IC50 < 0.02 µM: Cc1nc2ccc(Br)cc2n2c(-c3ccccc3Cl)nnc12 [Compound B-3a]
A: n

Q: Threshold test, IC50 < 0.02 µM: CCCCOc1cncc(-c2nnc3c(C)nc4ccc(CNC(C)C)cc4n23)c1 [Compound B-153]
A: n

Q: Threshold test, IC50 < 0.02 µM: CCNC(=O)c1ccc2nc(C)c3nnc(-c4cccnc4C)n3c2c1 [Compound B-68]
A: n

Q: Threshold test, IC50 < 0.02 µM: CCNC(=O)c1ccc2nc(C)c3nnc(-c4c(Cl)cccc4Cl)n3c2c1 [Compound B-33]
A: y

Q: Threshold test, IC50 < 0.02 µM: Cc1nc2ccc(CN3CCC(O)CC3)cc2n2c(-c3ccccc3Cl)nnc12 [Compound B-81]
A: n

----------
# IC50 annotations
target: Rat recombinant PDE10A (rPDE10A2) (Rattus norvegicus, UniProt Q9QYJ6); construct: made in house; host or cells: Sf9 insect cells (baculovirus); test: In vitro assay PDE10A (SPA, 3H-cAMP); assay type: biochemical; settings: read-out: PIC50 PDE10 (converted)

Recorded IC50, per entry:
>  <Smiles record>
CCCOc1cncc(-c2nnc3c(C)nc4ccc(CNC5CCC5)cc4n23)c1

>  <IC50>
> 10000 nM

$$$$
>  <Smiles record>
CCNC(=O)c1ccc2nc(C)c3nnc(-c4ccccc4OC)n3c2c1

>  <IC50>
93.3 nM

$$$$
>  <Smiles record>
Cc1ncccc1-c1nnc2c(C)nc3ccc(CN4CCOCC4)cc3n12

>  <IC50>
117 nM

$$$$

Q: Fill in the blank: the reported IC50 of `Cc1nc2ccc(CN[C@H]3CC[C@H](O)CC3)cc2n2c(-c3ccccc3Cl)nnc12` is ____.
A: 50.1 nM
